Molecular target: Solute carrier family 2, facilitated glucose transporter member 4 (Homo sapiens)
Sequence (P14672 whole entry): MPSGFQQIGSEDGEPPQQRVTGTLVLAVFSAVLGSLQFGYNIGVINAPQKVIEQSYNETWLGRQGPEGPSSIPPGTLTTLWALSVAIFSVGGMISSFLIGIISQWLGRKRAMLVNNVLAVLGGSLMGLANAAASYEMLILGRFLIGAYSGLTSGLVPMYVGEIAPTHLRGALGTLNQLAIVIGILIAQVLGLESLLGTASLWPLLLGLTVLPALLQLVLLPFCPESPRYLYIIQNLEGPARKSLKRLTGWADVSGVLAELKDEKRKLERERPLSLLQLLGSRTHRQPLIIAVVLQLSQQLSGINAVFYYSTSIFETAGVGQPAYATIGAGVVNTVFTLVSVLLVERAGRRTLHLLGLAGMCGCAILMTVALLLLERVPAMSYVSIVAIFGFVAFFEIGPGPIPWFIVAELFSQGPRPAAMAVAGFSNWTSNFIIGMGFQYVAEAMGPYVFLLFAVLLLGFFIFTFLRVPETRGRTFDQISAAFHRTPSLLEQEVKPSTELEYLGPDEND
Assay: Antagonist activity at human GLUT4 expressed in HEK293 cells transfected with GLUT1 shRNA assessed as inhibition of [3H]2-deoxy-D-glucose uptake preincubated for 5 mins followed by [3H]2-deoxy-D-glucose addition and measured after 6 mins
pIC50: −log10 of the molar value.
Property: pIC50

I: COc1ccc(C(=O)N(Cc2ccncc2)Cc2cccc(OCc3cccc(OC)c3)c2)cc1
II: COc1ccc(C(=O)N(Cc2ccncc2)Cc2cccc(OCCc3ccc(F)cc3)c2)cc1
III: Oc1cccc(CNCc2ccncc2)c1
Ordering criterion: pIC50; begin with the maximum. Write the labels in rank order as requested.
II, I, III
